Values were extracted from patent US8664257B2.

Target: Recombinant human cathepsin A (Homo sapiens)
Construct: Recombinant human cathepsin A (residues 29-480, with a C-terminal 10-His tag); 10-His (C); purchased R&D Systems 1049-SE
Assay: Cathepsin A inhibitory activity
Format: biochemical
Details: read-out: Activity (2): Cathepsin A inhibitory activity (IC50 class)
QUANTITY KIND: IC50

[
  {
    "COMPOUND": "O=C(O)C[C@H](NC(=O)c1cc(OCC2CC2)n(-c2ccccc2F)n1)c1ccccc1C(F)(F)F",
    "QUANTITY KIND": "IC50",
    "VAL": "100 to 1000 nM"
  },
  {
    "COMPOUND": "Cc1ccccc1[C@H](CC(=O)O)NC(=O)c1cc(OCCc2c(C)noc2C)n(-c2ccccc2F)n1",
    "QUANTITY KIND": "IC50",
    "VAL": "< 100 nM"
  },
  {
    "COMPOUND": "CCOc1cc(C(=O)N[C@@H](CC(=O)O)c2ccc(C#N)cc2)nn1-c1ccccc1Cl",
    "QUANTITY KIND": "IC50",
    "VAL": "100 to 1000 nM"
  },
  {
    "COMPOUND": "COc1cc(-c2ccccc2)ccc1C(CC(=O)O)NC(=O)c1cc(O)n(-c2ccccc2Cl)n1 (centres unmarked)",
    "QUANTITY KIND": "IC50",
    "VAL": "100 to 1000 nM"
  },
  {
    "COMPOUND": "Cc1ccccc1[C@H](CC(=O)O)NC(=O)c1cc(O)n(C2CCCC2)n1",
    "QUANTITY KIND": "IC50",
    "VAL": "100 to 1000 nM"
  },
  {
    "COMPOUND": "CCOc1cc(C(=O)N[C@@H](CC(=O)O)c2ccccc2)nn1-c1ccccc1Cl",
    "QUANTITY KIND": "IC50",
    "VAL": "100 to 1000 nM"
  },
  {
    "COMPOUND": "O=C(O)CC(NC(=O)c1cc(O)n(C2CCCC2)n1)c1ccc(-c2ccc(F)cc2)cc1 (centres unmarked)",
    "QUANTITY KIND": "IC50",
    "VAL": "1000 to 30000 nM"
  },
  {
    "COMPOUND": "Cc1ccccc1[C@H](CC(=O)O)NC(=O)c1cc(OCC(C)(C)O)n(-c2ccccc2F)n1",
    "QUANTITY KIND": "IC50",
    "VAL": "< 100 nM"
  }
]

---

Biological target: Recombinant human cathepsin A (Homo sapiens, UniProt P10619)
Construct: Recombinant human cathepsin A (residues 29-480, with a C-terminal 10-His tag); 10-His (C); purchased R&D Systems 1049-SE
Sequence (P10619 29-312 limits assumed): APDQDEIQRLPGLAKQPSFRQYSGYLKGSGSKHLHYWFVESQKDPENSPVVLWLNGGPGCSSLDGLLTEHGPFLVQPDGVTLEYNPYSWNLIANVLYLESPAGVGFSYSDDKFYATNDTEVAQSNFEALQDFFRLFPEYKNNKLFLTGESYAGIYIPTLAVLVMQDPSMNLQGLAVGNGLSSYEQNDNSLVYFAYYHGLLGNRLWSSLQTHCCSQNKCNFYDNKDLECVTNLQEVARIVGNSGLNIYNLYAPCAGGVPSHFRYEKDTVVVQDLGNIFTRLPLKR
Sequence (P10619 327-480 limits assumed): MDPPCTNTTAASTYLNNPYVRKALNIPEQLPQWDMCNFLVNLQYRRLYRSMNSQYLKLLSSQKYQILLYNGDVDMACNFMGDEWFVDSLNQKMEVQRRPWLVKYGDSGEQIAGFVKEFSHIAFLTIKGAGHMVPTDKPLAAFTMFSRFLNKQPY
Assay: Cathepsin A inhibitory activity
Assay type: biochemical
Settings: read-out: Activity (2): Cathepsin A inhibitory activity, IC50 class
# Lookup of reported IC50 keyed by entry

[
  {
    "COMPOUND": "COc1ccc(C(CC(=O)O)NC(=O)c2cc(O)n(-c3cccc(F)c3)n2)c(OC)c1 (centres unmarked)",
    "IC50": "0.1 to 1 µM"
  },
  {
    "COMPOUND": "O=C(O)CC(NC(=O)c1cc(O)n(-c2ccccc2)n1)c1ccc(Cl)c(Cl)c1 (centres unmarked)",
    "IC50": "0.1 to 1 µM"
  },
  {
    "COMPOUND": "O=C(O)CC(NC(=O)c1cc(O)n(-c2ccccc2)n1)c1ccc(OC(F)(F)F)cc1 (centres unmarked)",
    "IC50": "0.1 to 1 µM"
  },
  {
    "COMPOUND": "O=C(O)C[C@H](NC(=O)c1cc(O)n(-c2ccc(Cl)cc2)n1)c1cccc(F)c1",
    "IC50": "1 to 30 µM"
  },
  {
    "COMPOUND": "O=C(O)CC(NC(=O)c1cc(O)n(-c2ccccc2F)n1)c1cccc(Cl)c1Cl (centres unmarked)",
    "IC50": "< 0.1 µM"
  },
  {
    "COMPOUND": "O=C(O)CC(NC(=O)c1cc(O)n(-c2ccccc2)n1)C1CCCCC1 (centres unmarked)",
    "IC50": "0.1 to 1 µM"
  },
  {
    "COMPOUND": "O=C(O)CC(NC(=O)c1cc(O)n(-c2ccccc2)n1)c1cccnc1 (centres unmarked)",
    "IC50": "0.1 to 1 µM"
  },
  {
    "COMPOUND": "O=C(O)C[C@H](NC(=O)c1cc(O)n(-c2cccc(F)c2)n1)c1cccc(C(F)(F)F)c1",
    "IC50": "0.1 to 1 µM"
  },
  {
    "COMPOUND": "O=C(O)C[C@H](NC(=O)c1cc(O)n(-c2ccccc2)n1)c1cccnc1",
    "IC50": "0.1 to 1 µM"
  },
  {
    "COMPOUND": "Cc1cccc(C(CC(=O)O)NC(=O)c2cc(O)n(-c3cc(C)ccc3C)n2)c1 (centres unmarked)",
    "IC50": "1 to 30 µM"
  },
  {
    "COMPOUND": "Cc1ccccc1[C@H](CC(=O)O)NC(=O)c1cc(O)n(-c2cccc(F)c2)n1",
    "IC50": "< 0.1 µM"
  },
  {
    "COMPOUND": "CC(C)[C@](C)(O)COc1cc(C(=O)N[C@@H](CC(=O)O)c2c(F)cccc2F)nn1-c1ccccc1F",
    "IC50": "< 0.1 µM"
  },
  {
    "COMPOUND": "O=C(O)C[C@H](NC(=O)c1cc(O)n(-c2ccc(F)cc2)n1)c1cccc(Cl)c1",
    "IC50": "0.1 to 1 µM"
  },
  {
    "COMPOUND": "COc1cccc([C@H](CC(=O)O)NC(=O)c2cc(O)n(-c3ccc(F)cc3)n2)c1",
    "IC50": "1 to 30 µM"
  },
  {
    "COMPOUND": "Cc1ccccc1[C@H](CC(=O)O)NC(=O)c1cc(O)n(-c2ccc(F)cc2)n1",
    "IC50": "< 0.1 µM"
  },
  {
    "COMPOUND": "COc1ccc(C(CC(=O)O)NC(=O)c2cc(O)n(-c3ccc(Cl)cc3)n2)c(OC)c1 (centres unmarked)",
    "IC50": "1 to 30 µM"
  },
  {
    "COMPOUND": "CC(C)C(C)(O)COc1cc(C(=O)NC(CC(=O)O)C2CCCCC2)nn1-c1ccccc1F (centres unmarked)",
    "IC50": "< 0.1 µM"
  }
]
